System: P-388
ASSAY_METHOD_TEXT: Inhibition of cell growth by counting cells, P-388
Format: cell-based, mouse
TEST_CONTEXT: Mus musculus, P388, 72 h; three days of incubation; read-out: IC50 (molar) P-388
ASSAY_ENDPOINT: pIC50
pIC50 here is simply -log10 of the concentration when that concentration is written in mol/L.

Please review the entries below; each comes with its answer.
{"COMPOUND": "COc1cc2c(cc1O)CCN[C@]21CS[C@@H]2c3c(OC(C)=O)c(C)c4c(c3[C@H](COC1=O)N1C2[C@H]2c3c(cc(C)c(OC)c3OC(C)=O)C[C@@H]([C@@H]1O)N2C)OCO4 (stereo partly drawn)", "ASSAY_ENDPOINT": "pIC50", "ASSAY_RESULT": 8.90}
{"COMPOUND": "CCN1CCc2cc(O)c(OC)cc2[C@@]12CS[C@@H]1c3c(OC(C)=O)c(C)c4c(c3[C@H](COC2=O)N2C1[C@H]1c3c(cc(C)c(OC)c3O)C[C@@H]([C@@H]2O)N1C)OCO4 (stereo partly drawn)", "ASSAY_ENDPOINT": "pIC50", "ASSAY_RESULT": 9.82}
{"COMPOUND": "COc1cc2c(cc1O)CCN[C@]21CS[C@@H]2c3c(O)c(C)c4c(c3[C@H](COC1=O)N1C2[C@@H]2N[C@@H](Cc3cc(C)c(OC)c(O)c32)[C@@H]1C#N)OCO4 (stereo partly drawn)", "ASSAY_ENDPOINT": "pIC50", "ASSAY_RESULT": 9.16}
{"COMPOUND": "CCCOc1cc2c(cc1OC)[C@@]1(CS[C@@H]3c4c(OC(C)=O)c(C)c5c(c4[C@H](COC1=O)N1C3[C@H]3c4c(cc(C)c(OC)c4OCCC)C[C@@H]([C@@H]1C#N)N3C)OCO5)NCC2 (stereo partly drawn)", "ASSAY_ENDPOINT": "pIC50", "ASSAY_RESULT": 5.93}
{"COMPOUND": "COc1cc2c(cc1OC(C)=O)CCN[C@]21CS[C@@H]2c3c(OC(C)=O)c(C)c4c(c3[C@H](COC1=O)N1C2[C@H]2c3c(cc(C)c(OC)c3O)C[C@@H]([C@@H]1O)N2C)OCO4 (stereo partly drawn)", "ASSAY_ENDPOINT": "pIC50", "ASSAY_RESULT": 9.83}
{"COMPOUND": "COc1cc2c(cc1OC(=O)/C=C/c1ccccc1)CCN[C@]21CS[C@@H]2c3c(OC(C)=O)c(C)c4c(c3[C@H](COC1=O)N1C2[C@H]2c3c(cc(C)c(OC)c3OC(=O)OC(C)(C)C)C[C@@H]([C@@H]1C#N)N2C)OCO4 (stereo partly drawn)", "ASSAY_ENDPOINT": "pIC50", "ASSAY_RESULT": 9.00}

[in] // returns reported pIC50 for input C=CCOc1cc2c(cc1OC)[C@@]1(CS[C@@H]3c4c(OC(C)=O)c(C)c5c(c4[C@H](COC1=O)N1C3[C@H]3c4c(cc(C)c(OC)c4O)C[C@@H]([C@@H]1O)N3C)OCO5)NCC2 (stereo partly drawn)
[out] 9.90

* * *

System: A-549
ASSAY_METHOD_TEXT: Inhibition of cells growth by colorimetric assay (SRB), A-549
Type: cell-based
TEST_CONTEXT: Homo sapiens, A549, 48 h, A-549; SRB, 48 hours exposure; read-out: A-549 GI50
Item-by-item account of GI50
Please answer using a numeric value trailed by its unit.

Please review the entries below; each comes with its answer.
{"MOLECULE": "COc1cc2c(cc1O)CCN[C@]21CS[C@@H]2c3c(OC(C)=O)c(C)c4c(c3[C@H](COC1=O)N1C2[C@H]2c3c(cc(C)c(OC)c3OC(=O)OC(C)(C)C)C[C@@H]([C@@H]1O)N2C)OCO4 (some centres unmarked)", "TESTED_SYSTEM": "A-549", "ASSAY_ENDPOINT": "GI50", "ASSAY_RESULT": "0.348 nM"}
{"MOLECULE": "CCCC(=O)Oc1c(C)c2c(c3c1[C@H]1SC[C@]4(NCCc5cc(O)c(OC)cc54)C(=O)OC[C@@H]3N3C1[C@H]1c4c(cc(C)c(OC)c4O)C[C@@H]([C@@H]3O)N1C)OCO2 (some centres unmarked)", "TESTED_SYSTEM": "A-549", "ASSAY_ENDPOINT": "GI50", "ASSAY_RESULT": "0.38 nM"}
{"MOLECULE": "COc1cc2c(cc1O)CCN(C)[C@]21CS[C@@H]2c3c(OC(C)=O)c(C)c4c(c3[C@H](COC1=O)N1C2[C@H]2c3c(cc(C)c(OC)c3O)C[C@@H]([C@@H]1O)N2C)OCO4 (some centres unmarked)", "TESTED_SYSTEM": "A-549", "ASSAY_ENDPOINT": "GI50", "ASSAY_RESULT": "0.463 nM"}
{"MOLECULE": "C=COC(=O)Oc1cc2c(cc1OC)[C@@]1(CS[C@@H]3c4c(OC(C)=O)c(C)c5c(c4[C@H](COC1=O)N1C3[C@H]3c4c(cc(C)c(OC)c4OC(=O)OC=C)C[C@@H]([C@@H]1O)N3C)OCO5)N(C(=O)OC=C)CC2 (some centres unmarked)", "TESTED_SYSTEM": "A-549", "ASSAY_ENDPOINT": "GI50", "ASSAY_RESULT": "43.5 nM"}

// below: GI50 requested for another molecule
[in] // returns reported GI50 for input C=COC(=O)Oc1cc2c(cc1OC)[C@@]1(CS[C@@H]3c4c(OC(C)=O)c(C)c5c(c4[C@H](COC1=O)N1C3[C@H]3c4c(cc(C)c(OC)c4OC(=O)OC=C)C[C@@H]([C@@H]1O)N3C)OCO5)NCC2 (some centres unmarked)
[out] 3.33 nM

* * *

Test system: K-562
ASSAY_METHOD_TEXT: Inhibition of cells growth by colorimetric assay (SRB), K-562
Assay type: cell-based
TEST_CONTEXT: K-562; SRB, 48 hours exposure
ASSAY_ENDPOINT: K-562 TGI
Format: numeric value only, no unit, no commentary.

{"MOLECULE": "C=COC(=O)N1CCc2cc(O)c(OC)cc2[C@@]12CS[C@@H]1c3c(OC(C)=O)c(C)c4c(c3[C@H](COC2=O)N2C1[C@H]1c3c(cc(C)c(OC)c3O)C[C@@H]([C@@H]2O)N1C)OCO4 (some centres unmarked)", "ASSAY_ENDPOINT": "K-562 TGI", "ASSAY_RESULT": "5.30E-08"}
{"MOLECULE": "COc1cc2c(cc1OC)[C@@]1(CS[C@@H]3c4c(OC(C)=O)c(C)c5c(c4[C@H](COC1=O)N1C3[C@H]3c4c(cc(C)c(OC)c4OC)C[C@@H]([C@@H]1O)N3C)OCO5)NCC2 (some centres unmarked)", "ASSAY_ENDPOINT": "K-562 TGI", "ASSAY_RESULT": "2.96E-09"}
{"MOLECULE": "C=COC(=O)Oc1cc2c(cc1OC)[C@@]1(CS[C@@H]3c4c(OC(C)=O)c(C)c5c(c4[C@H](COC1=O)N1C3[C@H]3c4c(cc(C)c(OC)c4O)C[C@@H]([C@@H]1O)N3C)OCO5)N(C(=O)OC=C)CC2 (some centres unmarked)", "ASSAY_ENDPOINT": "K-562 TGI", "ASSAY_RESULT": "6.20E-08"}

[in] // returns reported K-562 TGI for input COc1cc2c(cc1O)CCN(C)[C@]21CS[C@@H]2c3c(OC(C)=O)c(C)c4c(c3[C@H](COC1=O)N1C2[C@H]2c3c(cc(C)c(OC)c3O)C[C@@H]([C@@H]1O)N2C)OCO4 (some centres unmarked)
[out] 1.29E-08

[in] // returns reported K-562 TGI for input COC1=C(C)C(=O)C2=C(C1=O)[C@@H]1C3[C@@H]4SC[C@]5(NCCc6cc(O)c(OC)cc65)C(=O)OC[C@@H](c5c6c(c(C)c(OC(C)=O)c54)OCO6)N3[C@@H](O)[C@H](C2)N1C (some centres unmarked)
[out] 6.20E-10

* * *

Item-by-item account of SK-OV3 TGI
Test system: SK-OV-3
ASSAY_METHOD_TEXT: Inhibition of cells growth by colorimetric assay (SRB), SK-OV-3
Assay type: cell-based
TEST_CONTEXT: SK-OV3; SRB, 48 hours exposure
Format: numeric value only, no unit, no commentary.

{"COMPOUND": "COc1cc2c(cc1OC(=O)Cc1cc(=O)oc3cc(N(C)C)ccc13)CCN[C@]21CS[C@@H]2c3c(OC(C)=O)c(C)c4c(c3[C@H](COC1=O)N1C2[C@H]2c3c(cc(C)c(OC)c3OC(=O)Cc3cc(=O)oc5cc(N(C)C)ccc35)C[C@@H]([C@@H]1O)N2C)OCO4 (some centres unmarked) [Compound 77]", "ASSAY_RESULT": "7.76E-09"}
{"COMPOUND": "COc1cc2c(cc1OC(=O)Cc1cc(=O)oc3cc(N(C)C)ccc13)CCN[C@]21CS[C@@H]2c3c(OC(C)=O)c(C)c4c(c3[C@H](COC1=O)N1C2[C@H]2c3c(cc(C)c(OC)c3OC(=O)Cc3cc(=O)oc5cc(N(C)C)ccc35)C[C@@H]([C@@H]1O)N2C)OCO4 (some centres unmarked) [Compound 78]", "ASSAY_RESULT": "6.27E-08"}
{"COMPOUND": "C=COC(=O)N1CCc2cc(O)c(OC)cc2[C@@]12CS[C@@H]1c3c(OC(C)=O)c(C)c4c(c3[C@H](COC2=O)N2C1[C@H]1c3c(cc(C)c(OC)c3O)C[C@@H]([C@@H]2O)N1C)OCO4 (some centres unmarked)", "ASSAY_RESULT": "6.59E-08"}

[in] // returns reported SK-OV3 TGI for input COc1cc2c(cc1OC)[C@@]1(CS[C@@H]3c4c(OC(C)=O)c(C)c5c(c4[C@H](COC1=O)N1C3[C@H]3c4c(cc(C)c(OC)c4OC)C[C@@H]([C@@H]1O)N3C)OCO5)NCC2 (some centres unmarked)
[out] 6.56E-08

[in] // returns reported SK-OV3 TGI for input COc1cc2c(cc1O)CCN(C)[C@]21CS[C@@H]2c3c(OC(C)=O)c(C)c4c(c3[C@H](COC1=O)N1C2[C@H]2c3c(cc(C)c(OC)c3O)C[C@@H]([C@@H]1O)N2C)OCO4 (some centres unmarked)
[out] 1.29E-09

[in] // returns reported SK-OV3 TGI for input C=COC(=O)Oc1cc2c(cc1OC)[C@@]1(CS[C@@H]3c4c(OC(C)=O)c(C)c5c(c4[C@H](COC1=O)N1C3[C@H]3c4c(cc(C)c(OC)c4O)C[C@@H]([C@@H]1O)N3C)OCO5)N(C(=O)OC=C)CC2 (some centres unmarked)
[out] 5.74E-08

[in] // returns reported SK-OV3 TGI for input COC1=C(C)C(=O)C2=C(C1=O)[C@@H]1C3[C@@H]4SC[C@]5(NCCc6cc(O)c(OC)cc65)C(=O)OC[C@@H](c5c6c(c(C)c(OC(C)=O)c54)OCO6)N3[C@@H](O)[C@H](C2)N1C (some centres unmarked)
[out] 9.77E-09

[in] // returns reported SK-OV3 TGI for input COc1cc2c(cc1O)CCN[C@]21CS[C@@H]2c3c(OC(C)=O)c(C)c4c(c3[C@H](COC1=O)N1C2[C@H]2c3c(cc(C)c(OC)c3OC(C)C)C[C@@H]([C@@H]1O)N2C)OCO4 (some centres unmarked)
[out] 1.10E-07
